Where do these numbers come from? They come from ChEMBL document CHEMBL1138515.

Catalogue of half-life values
assay.explanation: Half life in Sprague-Dawley rat at 5 mg/kg, iv
Assay type: ADME, organism-based
Parameters: dose 5 mg/kg, route intravenous
experimental.setup: in vivo

molecule | measurement.unit | half-life
COc1ccccc1CNC1(CCC(C)(C)C)C(=O)C(C2=NS(=O)(=O)c3cc(NS(C)(=O)=O)ccc3N2)=C(O)c2ccccc21 (configuration not stated) | h | 3.2
CC(C)(C)CCC1(NCc2ccccc2N)C(=O)C(C2=NS(=O)(=O)c3cc(NS(C)(=O)=O)ccc3N2)=C(O)c2ccccc21 (configuration not stated) | h | 2.2
Cc1cccc(C)c1CNC1(CCC(C)(C)C)C(=O)C(C2=NS(=O)(=O)c3cc(NS(C)(=O)=O)ccc3N2)=C(O)c2ccccc21 (configuration not stated) | h | 5
Cc1cccc(CNC2(CCC(C)(C)C)C(=O)C(C3=NS(=O)(=O)c4cc(NS(C)(=O)=O)ccc4N3)=C(O)c3ccccc32)n1 (configuration not stated) | h | 1
CC(C)CC[C@@]1(N)C(=O)C(C2=NS(=O)(=O)c3cc(NS(C)(=O)=O)ccc3N2)=C(O)c2ccccc21 | h | 0.3
Cc1ccc(CNC2(CCC(C)(C)C)C(=O)C(C3=NS(=O)(=O)c4cc(NS(C)(=O)=O)ccc4N3)=C(O)c3ccccc32)cn1 (configuration not stated) | h | 0.5
Cc1cccc(C)c1CN[C@]1(CCC(C)(C)C)C(=O)C(C2=NS(=O)(=O)c3cc(NS(C)(=O)=O)ccc3N2)=C(O)c2ccccc21 | h | 3.1

* * *

assay.explanation: Drug level in Sprague-Dawley rat liver at 5 mg/kg, po after 6 hrs
Type: ADME, organism-based
Parameters: dose 5 mg/kg, route oral
experimental.setup: read-out: Drug uptake
# concentration at 6 h per record follows
quantity.measured: concentration at 6 h

input.smiles | quantity.measured | recorded.measurement
CC(C)CC[C@@]1(NCc2ccccc2)C(=O)C(C2=NS(=O)(=O)c3cc(NS(C)(=O)=O)ccc3N2)=C(O)c2ccccc21 | concentration at 6 h | 2350 ng/g
Cc1cccc(C)c1CN[C@]1(CCC(C)(C)C)C(=O)C(C2=NS(=O)(=O)c3cc(NS(C)(=O)=O)ccc3N2)=C(O)c2ccccc21 | concentration at 6 h | 4360 ng/g

* * *

assay.explanation: Drug level in Sprague-Dawley rat liver at 5 mg/kg, po after 1 hr
Format: ADME, organism-based
Set-up: dose 5 mg/kg, route oral
experimental.setup: read-out: Drug uptake

input.smiles | concentration at 1 h
CC(C)CC[C@@]1(NCc2ccccc2)C(=O)C(C2=NS(=O)(=O)c3cc(NS(C)(=O)=O)ccc3N2)=C(O)c2ccccc21 | 3590 ng/g
Cc1cccc(C)c1CN[C@]1(CCC(C)(C)C)C(=O)C(C2=NS(=O)(=O)c3cc(NS(C)(=O)=O)ccc3N2)=C(O)c2ccccc21 | 5860 ng/g

* * *

In this section we review reported Kp at 6 h values for a set of compounds.
assay.explanation: Ratio of drug level in liver to plasma of Sprague-Dawley rat at 5 mg/kg, po after 6 hrs
Assay type: ADME, organism-based
Parameters: dose 5 mg/kg, route oral
experimental.setup: liver and plasma

input.smiles | Kp at 6 h
CC(C)CC[C@@]1(NCc2ccccc2)C(=O)C(C2=NS(=O)(=O)c3cc(NS(C)(=O)=O)ccc3N2)=C(O)c2ccccc21 | 6
Cc1cccc(C)c1CN[C@]1(CCC(C)(C)C)C(=O)C(C2=NS(=O)(=O)c3cc(NS(C)(=O)=O)ccc3N2)=C(O)c2ccccc21 | 15
